From: patent US20250213705A1

# target.or.system: Recombinant Human PSMA/FOLH1 Protein (Homo sapiens (Human), UniProt Q04609)
# Sequence (Q04609 whole entry): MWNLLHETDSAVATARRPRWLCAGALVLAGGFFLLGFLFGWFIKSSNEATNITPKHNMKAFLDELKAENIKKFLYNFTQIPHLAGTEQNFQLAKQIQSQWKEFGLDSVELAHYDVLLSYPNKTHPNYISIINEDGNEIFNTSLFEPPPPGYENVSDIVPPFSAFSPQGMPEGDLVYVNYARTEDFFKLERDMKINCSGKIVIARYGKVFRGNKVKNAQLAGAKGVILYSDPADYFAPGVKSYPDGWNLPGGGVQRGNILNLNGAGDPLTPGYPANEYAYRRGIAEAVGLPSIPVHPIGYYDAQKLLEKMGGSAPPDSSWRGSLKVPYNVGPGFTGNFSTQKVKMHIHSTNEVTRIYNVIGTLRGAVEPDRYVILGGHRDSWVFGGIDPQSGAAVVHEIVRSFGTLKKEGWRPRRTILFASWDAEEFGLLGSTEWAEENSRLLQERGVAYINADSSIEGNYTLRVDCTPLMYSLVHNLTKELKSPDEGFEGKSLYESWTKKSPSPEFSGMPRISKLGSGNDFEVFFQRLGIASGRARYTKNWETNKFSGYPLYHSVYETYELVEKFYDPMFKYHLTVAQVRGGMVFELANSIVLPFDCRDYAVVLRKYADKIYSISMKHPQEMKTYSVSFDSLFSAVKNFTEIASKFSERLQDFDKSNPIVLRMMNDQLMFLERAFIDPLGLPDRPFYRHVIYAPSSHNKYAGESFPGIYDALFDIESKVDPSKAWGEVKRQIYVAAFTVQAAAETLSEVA
# assay.summary: Inhibition assay (Amplex Red glutamic acid/glutamate oxidase, NAAG substrate)
# reported.conditions: Target PSMA; calculated based on Cheng-Prusoff equation; average of N replicates
Item-by-item account of Ki
readout.kind: Ki

molecule	value.observed
CC(=O)NCCOCCOCCOCCC(=O)N1C[C@H](NC(=O)COc2cc(C#N)cc(C#N)c2)C[C@H]1C(=O)NCC(=O)N[C@@H](Cc1ccc2ccccc2c1)C(=O)NCCCC[C@H](NC(=O)N[C@@H](CCC(=O)O)C(=O)O)C(=O)O [Compound 89]	669 pM
CC(=O)NCCOCCOCCOCCC(=O)NC[C@H]1CC[C@H](C(=O)N[C@@H](Cc2ccc(-c3ccccc3)cc2)C(=O)NCCCC[C@H](NC(=O)N[C@@H](CCC(=O)O)C(=O)O)C(=O)O)CC1 [Compound 7]	1230 pM
CC(=O)NCCOCCOCCOCCC(=O)N[C@@H](CCCOc1cc(C#N)cc(C#N)c1)C(=O)NCCC(=O)N[C@@H](Cc1ccc2ccccc2c1)C(=O)NCCCC[C@H](NC(=O)N[C@@H](CCC(=O)O)C(=O)O)C(=O)O [Compound 53]	80.1 pM
